- TESTED_SYSTEM: Serotonin 3 (5-HT3) receptor (Rattus norvegicus) (UniProt P35563+Q9JJ16)
- METHOD_DESCRIPTION: Inhibition of 5-HT evoked reflex bradycardia in rat.
- Format: functional, organism-based
The label is true for ID50 below 2 µg/kg and false for ID50 equal to or exceeding 2 µg/kg.

COMPOUND | CLASS
CCn1nc(C(=O)NC2CC3CCCC(C2)N3C)c2ccccc21 (configuration not stated) | true
Cc1nccn1CC1CCc2c(c3ccccc3n2C)C1=O (configuration not stated) | false
CCc1nc(C(=O)NC2CC3CCCC(C2)N3C)c2ccccn12 (configuration not stated) | true
CN1C2CCC1CC(NC(=O)c1ccc3ccccn13)C2 (configuration not stated) | false
CN1C2CCCC1CC(NC(=O)c1[nH]nc3ccc(Cl)cc13)C2 (configuration not stated) | false
CCc1nc(C(=O)NC2CC3CCC(C2)N3C)c2ccccn12 (configuration not stated) | true

* * *

- TESTED_SYSTEM: Serotonin 3 (5-HT3) receptor (Rattus norvegicus) (UniProt P35563+Q9JJ16)
- METHOD_DESCRIPTION: Inhibition of 5-HT evoked reflex bradycardia in rat.
- Format: functional, organism-based
Each entry below carries its recorded ID50.

MOLECULE | ID50
CN1C2CCCC1CC(NC(=O)c1cn(C)c3ccccc13)C2 (stereo unspecified) | 6.8 µg/kg
CN1C2CCC1CC(NC(=O)c1cc(-c3ccccc3)c3ccccn13)C2 (stereo unspecified) | 4.7 µg/kg
CN1C2CCC1CC(OC(=O)c1[nH]nc3ccccc13)C2 (stereo unspecified) | 5.3 µg/kg
CN1C2CCCC1CC(NC(=O)c1[nH]nc3ccccc13)C2 (stereo unspecified) | 1.1 µg/kg
Cc1cc(C(=O)NC2CC3CCC(C2)N3C)n2ccccc12 (stereo unspecified) | 1.6 µg/kg
CN1C2CCC1CC(NC(=O)c1n[nH]c3ccccc13)C2 (stereo unspecified) | 1.2 µg/kg
CN1C2CCCC1CC(NC(=O)c1[nH]nc3ccc(F)cc13)C2 (stereo unspecified) | 1 µg/kg
CN1C2CCC1CC(OC(=O)c1nn(C)c3ccccc13)C2 (stereo unspecified) | 1.4 µg/kg
CCc1cc(C(=O)NC2CC3CCC(C2)N3C)n2ccccc12 (stereo unspecified) | 1 µg/kg
CN1[C@@H]2CC[C@H]1C[C@@H](OC(=O)c1c[nH]c3ccccc13)C2 | 1.4 µg/kg
CN1C2CCCC1CC(NC(=O)c1c3ccccc3nn1C)C2 (stereo unspecified) | > 100 µg/kg
